Listed below: RP (Rf, BSA-impregnated RP plate) values for each entry.
Biological target: bovine serum albumin (BSA) (Bos taurus, UniProt P02769)
Construct: purchased Sigma Aldrich
Sequence (P02769 25-607): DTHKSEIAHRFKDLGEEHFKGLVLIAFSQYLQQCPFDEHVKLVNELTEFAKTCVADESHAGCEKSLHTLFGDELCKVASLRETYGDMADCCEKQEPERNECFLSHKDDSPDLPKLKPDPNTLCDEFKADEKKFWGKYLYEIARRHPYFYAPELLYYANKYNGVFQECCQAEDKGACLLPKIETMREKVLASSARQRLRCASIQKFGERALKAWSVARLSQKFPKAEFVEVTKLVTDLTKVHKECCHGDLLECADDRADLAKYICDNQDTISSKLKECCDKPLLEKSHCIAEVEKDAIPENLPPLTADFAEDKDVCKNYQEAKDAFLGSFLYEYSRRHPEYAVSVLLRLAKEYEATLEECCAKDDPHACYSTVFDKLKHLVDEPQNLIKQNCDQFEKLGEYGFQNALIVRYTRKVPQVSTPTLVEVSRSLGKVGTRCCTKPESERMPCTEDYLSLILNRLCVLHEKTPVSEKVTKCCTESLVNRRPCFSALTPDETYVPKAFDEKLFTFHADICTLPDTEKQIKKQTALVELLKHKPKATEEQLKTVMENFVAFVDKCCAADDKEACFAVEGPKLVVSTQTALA
Test: RP TLC on plates impregnated with bovine serum albumin
Format: binding
Settings: Table S4, RP plate impregnated with 2 mg/mL BSA; pH 7.4 mobile phase

{"COMPOUND": "CC1(C)S[C@@H]2[C@H](NC(=O)[C@H](N)c3ccc(O)cc3)C(=O)N2[C@H]1C(=O)O [amoxilcillin]", "EXPERIMENTAL_SYSTEM": "bovine serum albumin (BSA) (Bos taurus, UniProt P02769)", "RP (Rf, BSA-impregnated RP plate)": 0.98}
{"COMPOUND": "CCCC(CCC)C(=O)O [valproic acid]", "EXPERIMENTAL_SYSTEM": "bovine serum albumin (BSA) (Bos taurus, UniProt P02769)", "RP (Rf, BSA-impregnated RP plate)": 0.04}
{"COMPOUND": "CSc1ccc2c(c1)N(CCC1CCCCN1C)c1ccccc1S2 (stereo not drawn) [thioridazine]", "EXPERIMENTAL_SYSTEM": "bovine serum albumin (BSA) (Bos taurus, UniProt P02769)", "RP (Rf, BSA-impregnated RP plate)": 0.40}
{"COMPOUND": "CC(C)c1nc(N(C)S(C)(=O)=O)nc(-c2ccc(F)cc2)c1/C=C/[C@@H](O)C[C@@H](O)CC(=O)O [rosuvastatin]", "EXPERIMENTAL_SYSTEM": "bovine serum albumin (BSA) (Bos taurus, UniProt P02769)", "RP (Rf, BSA-impregnated RP plate)": 0.88}
{"COMPOUND": "CN1CCC(=C2c3ccccc3CC(=O)c3sccc32)CC1 [ketotifen]", "EXPERIMENTAL_SYSTEM": "bovine serum albumin (BSA) (Bos taurus, UniProt P02769)", "RP (Rf, BSA-impregnated RP plate)": 0.74}
{"COMPOUND": "CN1CCN=C(c2ccccc2)c2cc(Cl)ccc21 [medazepam]", "EXPERIMENTAL_SYSTEM": "bovine serum albumin (BSA) (Bos taurus, UniProt P02769)", "RP (Rf, BSA-impregnated RP plate)": 0.65}
{"COMPOUND": "CN1CCN2c3ncccc3Cc3ccccc3C2C1 (stereo not drawn) [mirtazapine]", "EXPERIMENTAL_SYSTEM": "bovine serum albumin (BSA) (Bos taurus, UniProt P02769)", "RP (Rf, BSA-impregnated RP plate)": 0.58}
{"COMPOUND": "CN(C)CCCN1c2ccccc2Sc2ccc(Cl)cc21 [chlorpromazine]", "EXPERIMENTAL_SYSTEM": "bovine serum albumin (BSA) (Bos taurus, UniProt P02769)", "RP (Rf, BSA-impregnated RP plate)": 0.50}
{"COMPOUND": "OC(CCN1CCCCC1)(c1ccccc1)C1CC2C=CC1C2 (stereo not drawn) [biperiden]", "EXPERIMENTAL_SYSTEM": "bovine serum albumin (BSA) (Bos taurus, UniProt P02769)", "RP (Rf, BSA-impregnated RP plate)": 0.85}
{"COMPOUND": "CC[C@H]1OC(=O)[C@H](C)[C@@H](O[C@H]2C[C@@](C)(OC)[C@@H](O)[C@H](C)O2)[C@H](C)[C@@H](O[C@@H]2O[C@H](C)C[C@H](N(C)C)[C@H]2O)[C@](C)(O)C[C@@H](C)/C(=N\\OCOCCOC)[C@H](C)[C@@H](O)[C@]1(C)O [roxitromicin]", "EXPERIMENTAL_SYSTEM": "bovine serum albumin (BSA) (Bos taurus, UniProt P02769)", "RP (Rf, BSA-impregnated RP plate)": 0.79}
{"COMPOUND": "CN[C@H]1CC[C@@H](c2ccc(Cl)c(Cl)c2)c2ccccc21 [sertraline]", "EXPERIMENTAL_SYSTEM": "bovine serum albumin (BSA) (Bos taurus, UniProt P02769)", "RP (Rf, BSA-impregnated RP plate)": 0.48}
{"COMPOUND": "CN/C(=N/CCSCc1nc[nH]c1C)NC#N [cimetidine]", "EXPERIMENTAL_SYSTEM": "bovine serum albumin (BSA) (Bos taurus, UniProt P02769)", "RP (Rf, BSA-impregnated RP plate)": 0.87}
{"COMPOUND": "CC(=O)S[C@@H]1CC2=CC(=O)CC[C@]2(C)[C@H]2CC[C@@]3(C)[C@@H](CC[C@@]34CCC(=O)O4)[C@H]12 [spironolactone]", "EXPERIMENTAL_SYSTEM": "bovine serum albumin (BSA) (Bos taurus, UniProt P02769)", "RP (Rf, BSA-impregnated RP plate)": 0.77}
{"COMPOUND": "CC[C@H]1OC(=O)[C@H](C)[C@@H](O[C@H]2C[C@@](C)(OC)[C@@H](O)[C@H](C)O2)[C@H](C)[C@@H](O[C@@H]2O[C@H](C)C[C@H](N(C)C)[C@H]2O)[C@](C)(OC)C[C@@H](C)C(=O)[C@H](C)[C@@H](O)[C@]1(C)O [clarithromycin]", "EXPERIMENTAL_SYSTEM": "bovine serum albumin (BSA) (Bos taurus, UniProt P02769)", "RP (Rf, BSA-impregnated RP plate)": 0.78}
{"COMPOUND": "C[C@H]1c2cccc(O)c2C(=O)C2=C(O)[C@]3(O)C(=O)C(C(N)=O)=C(O)[C@@H](N(C)C)[C@@H]3[C@@H](O)[C@@H]21 [doxycycline]", "EXPERIMENTAL_SYSTEM": "bovine serum albumin (BSA) (Bos taurus, UniProt P02769)", "RP (Rf, BSA-impregnated RP plate)": 0.09}
{"COMPOUND": "O=C1CN=C(c2ccccn2)c2cc(Br)ccc2N1 [bromazepam]", "EXPERIMENTAL_SYSTEM": "bovine serum albumin (BSA) (Bos taurus, UniProt P02769)", "RP (Rf, BSA-impregnated RP plate)": 0.81}
{"COMPOUND": "CCOc1ccc(/C=C2\\NCCc3cc(OCC)c(OCC)cc32)cc1OCC [drotaverine]", "EXPERIMENTAL_SYSTEM": "bovine serum albumin (BSA) (Bos taurus, UniProt P02769)", "RP (Rf, BSA-impregnated RP plate)": 0.58}
{"COMPOUND": "CN1C[C@H](C(=O)N[C@]2(C)O[C@@]3(O)[C@@H]4CCCN4C(=O)[C@H](Cc4ccccc4)N3C2=O)C[C@@H]2c3cccc4[nH]cc(c34)C[C@H]21 [dihydroergotamine]", "EXPERIMENTAL_SYSTEM": "bovine serum albumin (BSA) (Bos taurus, UniProt P02769)", "RP (Rf, BSA-impregnated RP plate)": 0.78}
{"COMPOUND": "C[C@]12CC[C@@H]3c4ccc(OC(=O)c5ccccc5)cc4CC[C@H]3[C@@H]1CC[C@@H]2O [estradiol benzoate]", "EXPERIMENTAL_SYSTEM": "bovine serum albumin (BSA) (Bos taurus, UniProt P02769)", "RP (Rf, BSA-impregnated RP plate)": 0.62}
{"COMPOUND": "O=C1NC(=O)C(c2ccccc2)(c2ccccc2)N1 [phenytoin]", "EXPERIMENTAL_SYSTEM": "bovine serum albumin (BSA) (Bos taurus, UniProt P02769)", "RP (Rf, BSA-impregnated RP plate)": 0.86}
{"COMPOUND": "CC(CN1c2ccccc2Sc2ccccc21)N(C)C (stereo not drawn) [promethazine]", "EXPERIMENTAL_SYSTEM": "bovine serum albumin (BSA) (Bos taurus, UniProt P02769)", "RP (Rf, BSA-impregnated RP plate)": 0.47}
{"COMPOUND": "CCOC(=O)[C@H](CCc1ccccc1)N[C@@H](C)C(=O)N1CCC[C@H]1C(=O)O [enalapril]", "EXPERIMENTAL_SYSTEM": "bovine serum albumin (BSA) (Bos taurus, UniProt P02769)", "RP (Rf, BSA-impregnated RP plate)": 0.58}
{"COMPOUND": "O=C(N[C@H](CO)[C@H](O)c1ccc([N+](=O)[O-])cc1)C(Cl)Cl [chloramphenikol]", "EXPERIMENTAL_SYSTEM": "bovine serum albumin (BSA) (Bos taurus, UniProt P02769)", "RP (Rf, BSA-impregnated RP plate)": 0.89}
{"COMPOUND": "COc1ccnc(C[S+]([O-])c2nc3ccc(OC(F)F)cc3[nH]2)c1OC (stereo not drawn) [pantoprazole]", "EXPERIMENTAL_SYSTEM": "bovine serum albumin (BSA) (Bos taurus, UniProt P02769)", "RP (Rf, BSA-impregnated RP plate)": 0.83}
